Literature compilation of IC50 measurements on Prolyl endopeptidase FAP (Homo sapiens).
assay-endpoint: IC50 (nM)

                                    molecule  assay_endpoint  experimental_result
 0  Cc1ccc(-c2ccc3nccc(C(=O)NCC(=O)N4CSC[C@H]4C#N)c3c2)cn1            IC50                 0.11
 1       N#C[C@@H]1CCCN1C(=O)CNC(=O)c1ccccc1            IC50                 2200
 2  N#Cc1ccccc1Cn1c(N2CCC[C@@H](N)C2)nc2c(C#N)csc2c1=O            IC50               160000
 3  COC[C@@H]1[C@@H](C)OCCN1c1ccc2nccc(C(=O)NCC(=O)N3CSC[C@H]3C#N)c2c1            IC50                 0.23
 4  Cc1cc(C(=O)NCC(=O)N2[C@H](C#N)C[C@@H]3C[C@@H]32)c2cc(Br)ccc2n1            IC50                   58
 5  N#Cc1ccccc1Cn1c(N2CCC[C@@H](N)C2)nc2c(C(=O)NCCO)csc2c1=O            IC50                57100
 6  CCc1ccc2nc(C)cc(C(=O)NCC(=O)N3[C@H](C#N)C[C@@H]4C[C@@H]43)c2c1            IC50                   25
 7  C[C@H](NC(=O)CNC(=O)c1cccc2ccccc12)B(O)O            IC50                 8200
 8  CC(C)C1CN(c2ccc3nccc(C(=O)NCC(=O)N4CSC[C@H]4C#N)c3c2)C1            IC50                0.059
 9  N#C[C@@H]1CSCN1C(=O)CNC(=O)c1ccnc2ccc(-c3cccnc3)cc12            IC50                0.081
10  N#Cc1ccccc1Cn1c(N2CCC[C@@H](N)C2)nc2c(N)csc2c1=O            IC50                91300
11  N#C[C@@H]1CSCN1C(=O)CNC(=O)c1ccnc2ccc(N3CCCC[C@H](F)C3)cc12            IC50                 0.14
12  Cc1cc(C(=O)NCC(=O)N2[C@H](C#N)C[C@@H]3C[C@@H]32)c2cc(I)ccc2n1            IC50                   53
13  C[C@@H]1CCCN(c2ccc3nccc(C(=O)NCC(=O)N4CSC[C@H]4C#N)c3c2)C1=O (single isomer, unassigned)            IC50                0.067
14  CN(C)C(=O)c1csc2c(=O)n(Cc3ccccc3C#N)c(N3CCC[C@@H](N)C3)nc12            IC50               170000
15  Cc1ccc2c(C(=O)NCC(=O)N3[C@H](C#N)C[C@@H]4C[C@@H]43)ccnc2c1            IC50                 0.48
16  C[C@H]1CCN(c2ccc3nccc(C(=O)NCC(=O)N4CSC[C@H]4C#N)c3c2)C1            IC50                0.062
17  N#C[C@@H]1C[C@@H]2C[C@@H]2N1C(=O)CNC(=O)c1ccnc2ccc(CF)cc12            IC50                  0.4
18  N#Cc1ccccc1Cn1c(N2CCC[C@@H](N)C2)nc2cc(C(=O)NCc3ccccc3F)sc2c1=O            IC50               101000
19  CO[C@H]1CCCN(c2ccc3nccc(C(=O)NCC(=O)N4CSC[C@H]4C#N)c3c2)C1 (mixture of isomers)            IC50                 0.16
20  C[C@@H]1CCN(c2ccc3nccc(C(=O)NCC(=O)N4CSC[C@H]4C#N)c3c2)C1=O (single isomer, unassigned)            IC50                0.044
21  N#Cc1ccccc1Cn1c(N2CCC[C@@H](N)C2)nc2c(C(=O)NC3CC3)csc2c1=O            IC50                75500
22  CC1(c2ccc3nccc(C(=O)NCC(=O)N4[C@H](C#N)C[C@@H]5C[C@@H]54)c3c2)CC1            IC50                  2.9
23  C[C@@H]1COC[C@H](C)N1c1ccc2nccc(C(=O)NCC(=O)N3CSC[C@H]3C#N)c2c1            IC50                 0.35
24  N#C[C@@H]1CSCN1C(=O)CNC(=O)c1ccnc2ccc(N3C[C@@H]4[C@H](C3)[C@H]4C(F)(F)F)cc12            IC50                 0.11
25  N#Cc1ccccc1Cn1c(N2CCC[C@@H](N)C2)nc2cc(C(=O)N3CCS(=O)(=O)CC3)sc2c1=O            IC50                52200
26  CC1(C)CN(c2ccc3nccc(C(=O)NCC(=O)N4CSC[C@H]4C#N)c3c2)CCO1            IC50                0.074
27  Cc1ccc2c(C(=O)NCC(=O)N3[C@H](C#N)C[C@@H]4C[C@@H]43)cc(C)nc2c1            IC50                   11
28  CC(C)[C@H](NC(=O)c1ccccc1)C(=O)N1CCC[C@H]1B(O)O            IC50                30000
29  N#C[C@@H]1C[C@@H]2C[C@@H]2N1C(=O)CNC(=O)c1ccnc2cc(C3CC3)ccc12            IC50                  0.3
30  N#C[C@@H]1CSCN1C(=O)CNC(=O)c1ccnc2cc(Cl)c(N3CCOCC3)cc12            IC50                0.048
